Experiment: in vivo
Conditions: male, rat, iv
Residues, ends and D or L forms follow the SMILES beside them. *: point of attachment. Myristoyl = CCCCCCCCCCCCCC(=O)*

[
  {
    "MOLECULE": "CCCCCCCCCCCCCC(=O)N[C@@H](Cc1ccccc1)C(=O)N[C@@H](CCC(=O)O)C(=O)N[C@@H](CCC(=O)O)C(=O)N[C@@H](CCC(=O)O)C(=O)N[C@@H](CCCNC(=N)N)C(=O)N[C@@H](CC(C)C)C(=O)O [M3mP6, Myr-FEEERL (SEQ ID NO: 8)] (Myristoyl-FEEERL-OH; C-terminus assumed)",
    "half-life (h)": 3.9
  }
]

====

Test: Rat 5-day infusion pharmacokinetic study
Details: male, plasma, intravenous
Residues, ends and D or L forms follow the SMILES beside them. *: point of attachment. Myristoyl = CCCCCCCCCCCCCC(=O)*
MEASUREMENT KIND: Tmax

[
  {
    "COMPOUND": "CCCCCCCCCCCCCC(=O)N[C@@H](Cc1ccccc1)C(=O)N[C@@H](CCC(=O)O)C(=O)N[C@@H](CCC(=O)O)C(=O)N[C@@H](CCC(=O)O)C(=O)N[C@@H](CCCNC(=N)N)C(=O)N[C@@H](CC(C)C)C(=O)O [M3mP6, Myr-FEEERL (SEQ ID NO: 8)] (Myristoyl-FEEERL-OH; C-terminus assumed)",
    "RESULT": "4.8 min"
  }
]

====

Experiment: Rat 5-day infusion pharmacokinetic study
Conditions: male, plasma, intravenous, CL CLAUC, clearance estimated from AUC0-∞
Residues, ends and D or L forms follow the SMILES beside them. *: point of attachment. Myristoyl = CCCCCCCCCCCCCC(=O)*

[
  {
    "COMPOUND": "CCCCCCCCCCCCCC(=O)N[C@@H](Cc1ccccc1)C(=O)N[C@@H](CCC(=O)O)C(=O)N[C@@H](CCC(=O)O)C(=O)N[C@@H](CCC(=O)O)C(=O)N[C@@H](CCCNC(=N)N)C(=O)N[C@@H](CC(C)C)C(=O)O [M3mP6, Myr-FEEERL (SEQ ID NO: 8)] (Myristoyl-FEEERL-OH; C-terminus assumed)",
    "UNIT TEXT": "mL/min/kg",
    "clearance": 1.4
  }
]
